Taken from patent US20250332149A1.

test: Phase 1 study Part 1: plasma PK and relative bioavailability of LUM-201 tablets vs capsule; type: in vivo, human; conditions: Part 1, Treatment D (test): 85.3 mg capsule contents in banana puree, oral, fasted
measuredMetric: λz, Geometric Mean

molecule	measuredMetric	value
CC(C)(N)C(=O)N[C@H](COCc1ccccc1)C(=O)N1CCC2(CC1)CN(S(C)(=O)=O)c1ccccc12 [LUM-201]	λz, Geometric Mean	0.0856 h⁻¹

* * *

assay: Phase 1 study Part 2: food effect on plasma PK of LUM-201 capsule; type: in vivo, human; settings: human, plasma, po, 85.3 mg, Part 2, Treatment B: 85.3 mg capsule, oral, 30 minutes after start of high-fat meal; read-out: Cmax, Arithmetic Mean

structureString	endpointUnit	Cmax
CC(C)(N)C(=O)N[C@H](COCc1ccccc1)C(=O)N1CCC2(CC1)CN(S(C)(=O)=O)c1ccccc12	ng/mL	151

* * *

experiment: Phase 1 study Part 1: plasma PK and relative bioavailability of LUM-201 tablets vs capsule; type: in vivo, human; details: human, plasma, po, 90 mg, Part 1, Treatment A (reference): five 18 mg tablets (90 mg), oral, fasted; read-out: Cmax, Arithmetic Mean
measuredMetric: Cmax (ng/mL)

structureString	value
CC(C)(N)C(=O)N[C@H](COCc1ccccc1)C(=O)N1CCC2(CC1)CN(S(C)(=O)=O)c1ccccc12	132

* * *

assay: Phase 1 study Part 1: plasma PK and relative bioavailability of LUM-201 tablets vs capsule; format: in vivo, human; details: Part 1, Treatment A (reference): five 18 mg tablets (90 mg), oral, fasted
measuredMetric: λz, Arithmetic Mean (h⁻¹)

compound	measuredMetric	endpointUnit	value
CC(C)(N)C(=O)N[C@H](COCc1ccccc1)C(=O)N1CCC2(CC1)CN(S(C)(=O)=O)c1ccccc12 [LUM-201]	λz, Arithmetic Mean	h⁻¹	0.0901

* * *

assay: Phase 1 study Part 1: plasma PK and relative bioavailability of LUM-201 tablets vs capsule; format: in vivo, human; settings: human, plasma, po, 85.3 mg, Part 1, Treatment B (test): 85.3 mg whole capsule, oral, fasted; read-out: t1/2, Geometric Mean (converted)
measuredMetric: half-life (h)

structureString	endpointUnit	value
CC(C)(N)C(=O)N[C@H](COCc1ccccc1)C(=O)N1CCC2(CC1)CN(S(C)(=O)=O)c1ccccc12	h	8.06

* * *

experiment: Phase 1 study Part 1: plasma PK and relative bioavailability of LUM-201 tablets vs capsule; type: in vivo, human; conditions: Part 1, Treatment B (test): 85.3 mg whole capsule, oral, fasted
measuredMetric: λz, Geometric Mean (h⁻¹)

structureString	endpointUnit	value
CC(C)(N)C(=O)N[C@H](COCc1ccccc1)C(=O)N1CCC2(CC1)CN(S(C)(=O)=O)c1ccccc12	h⁻¹	0.086

* * *

test: Phase 1 study Part 1: plasma PK and relative bioavailability of LUM-201 tablets vs capsule; type: in vivo, human; conditions: human, plasma, po, 85.3 mg, Part 1, Treatment C (test): 85.3 mg capsule contents (dry), oral, fasted; read-out: AUC0-inf, Geometric Mean
measuredMetric: AUC(0-inf) (ng·h/mL)

structureString	measuredMetric	value
CC(C)(N)C(=O)N[C@H](COCc1ccccc1)C(=O)N1CCC2(CC1)CN(S(C)(=O)=O)c1ccccc12	AUC(0-inf)	534

* * *

assay: Phase 1 study Part 1: plasma PK and relative bioavailability of LUM-201 tablets vs capsule; type: in vivo, human; settings: human, plasma, po, 85.3 mg, Part 1, Treatment D (test): 85.3 mg capsule contents in banana puree, oral, fasted; read-out: Cmax, Arithmetic Mean

structureString	endpointUnit	Cmax
CC(C)(N)C(=O)N[C@H](COCc1ccccc1)C(=O)N1CCC2(CC1)CN(S(C)(=O)=O)c1ccccc12	ng/mL	121

* * *

experiment: Phase 1 study Part 1: plasma PK and relative bioavailability of LUM-201 tablets vs capsule; format: in vivo, human; details: human, plasma, po, 85.3 mg, Part 1, Treatment C (test): 85.3 mg capsule contents (dry), oral, fasted; read-out: Cmax, Geometric Mean

structureString	Cmax / ng/mL
CC(C)(N)C(=O)N[C@H](COCc1ccccc1)C(=O)N1CCC2(CC1)CN(S(C)(=O)=O)c1ccccc12	86.5

* * *

Assay: Phase 1 study Part 2: food effect on plasma PK of LUM-201 capsule
Type: in vivo, human
Conditions: human, plasma, po, 85.3 mg, Part 2, Treatment A: 85.3 mg capsule, oral, fasted; read-out: AUC0-inf, Geometric Mean
Excerpt: This was a single center, open-label, randomized, Phase 1 study in healthy adult subjects. This study consisted of 2 parts: Part 1 was a 4-sequence, 4-treatment, 4 Treatment Periods, crossover study to determine the relative bioavailability of current tablets to new capsule formulations of LUM-201; Part 2 was a 2-sequence, 2-treatment, 2 Treatment Periods, crossover study to evaluate the food effect on the bioavailability of the new capsule formulation of LUM-201. […]
measuredMetric: AUC(0-inf) (ng·h/mL)

compound	endpointUnit	value
CC(C)(N)C(=O)N[C@H](COCc1ccccc1)C(=O)N1CCC2(CC1)CN(S(C)(=O)=O)c1ccccc12 [LUM-201]	ng·h/mL	504

* * *

assay: Phase 1 study Part 2: food effect on plasma PK of LUM-201 capsule; type: in vivo, human; settings: human, plasma, po, 85.3 mg, Part 2, Treatment A: 85.3 mg capsule, oral, fasted; read-out: t1/2, Arithmetic Mean (converted)
measuredMetric: half-life (h)

structureString	measuredMetric	value
CC(C)(N)C(=O)N[C@H](COCc1ccccc1)C(=O)N1CCC2(CC1)CN(S(C)(=O)=O)c1ccccc12	half-life	8.39

* * *

test: Phase 1 study Part 1: plasma PK and relative bioavailability of LUM-201 tablets vs capsule; format: in vivo, human; conditions: human, plasma, po, 85.3 mg, Part 1, Treatment D (test): 85.3 mg capsule contents in banana puree, oral, fasted; read-out: tmax, Median

molecule	endpointUnit	Tmax
CC(C)(N)C(=O)N[C@H](COCc1ccccc1)C(=O)N1CCC2(CC1)CN(S(C)(=O)=O)c1ccccc12 [LUM-201]	h	1.03

* * *

Experiment: Phase 1 study Part 1: plasma PK and relative bioavailability of LUM-201 tablets vs capsule
Type: in vivo, human
Settings: human, plasma, po, 90 mg, Part 1, Treatment A (reference): five 18 mg tablets (90 mg), oral, fasted; read-out: AUC0-last, Geometric Mean
Source text: This study in healthy adult subjects was designed to establish the pharmacokinetic (PK) and pharmacodynamic (PD) profiles for the orally administered test product (coated mini-tablets in a capsule) and reference product (mini-tablet) to evaluate relative bioavailability in Part 1 and to evaluate the food effect on the bioavailability of test product (capsule only) in Part 2. This was a single center, open-label, randomized, Phase 1 study in healthy adult subjects. […]

structureString	AUC(0-t) [ng·h/mL]
CC(C)(N)C(=O)N[C@H](COCc1ccccc1)C(=O)N1CCC2(CC1)CN(S(C)(=O)=O)c1ccccc12	552

* * *

assay: Phase 1 study Part 1: plasma PK and relative bioavailability of LUM-201 tablets vs capsule; type: in vivo, human; details: human, plasma, po, 90 mg, Part 1, Treatment A (reference): five 18 mg tablets (90 mg), oral, fasted; read-out: AUC0-inf, Arithmetic Mean

structureString	endpointUnit	AUC(0-inf)
CC(C)(N)C(=O)N[C@H](COCc1ccccc1)C(=O)N1CCC2(CC1)CN(S(C)(=O)=O)c1ccccc12	ng·h/mL	630

* * *

experiment: Phase 1 study Part 2: food effect on plasma PK of LUM-201 capsule; assay type: in vivo, human; details: human, plasma, po, 85.3 mg, Part 2, Treatment B: 85.3 mg capsule, oral, 30 minutes after start of high-fat meal; read-out: t1/2, Arithmetic Mean (converted)

compound	half-life / h
CC(C)(N)C(=O)N[C@H](COCc1ccccc1)C(=O)N1CCC2(CC1)CN(S(C)(=O)=O)c1ccccc12 [LUM-201]	8.87

* * *

test: Phase 1 study Part 1: plasma PK and relative bioavailability of LUM-201 tablets vs capsule; assay type: in vivo, human; settings: human, plasma, po, 85.3 mg, Part 1, Treatment B (test): 85.3 mg whole capsule, oral, fasted; read-out: t1/2, Arithmetic Mean (converted)

structureString	half-life (h)
CC(C)(N)C(=O)N[C@H](COCc1ccccc1)C(=O)N1CCC2(CC1)CN(S(C)(=O)=O)c1ccccc12	8.19

* * *

experiment: Phase 1 study Part 1: plasma PK and relative bioavailability of LUM-201 tablets vs capsule; format: in vivo, human; details: human, plasma, po, 85.3 mg, Part 1, Treatment B (test): 85.3 mg whole capsule, oral, fasted; read-out: AUC0-last, Arithmetic Mean
measuredMetric: AUC(0-t)

structureString	value
CC(C)(N)C(=O)N[C@H](COCc1ccccc1)C(=O)N1CCC2(CC1)CN(S(C)(=O)=O)c1ccccc12	557 ng·h/mL

* * *

experiment: Phase 1 study Part 1: plasma PK and relative bioavailability of LUM-201 tablets vs capsule; assay type: in vivo, human; details: human, plasma, po, 85.3 mg, Part 1, Treatment D (test): 85.3 mg capsule contents in banana puree, oral, fasted; read-out: AUC0-inf, Arithmetic Mean
measuredMetric: AUC(0-inf) (ng·h/mL)

structureString	value
CC(C)(N)C(=O)N[C@H](COCc1ccccc1)C(=O)N1CCC2(CC1)CN(S(C)(=O)=O)c1ccccc12	629
